Test: OD615 S. cerevisiae growth inhibition, permissive medium, pilot counter-assay, permissive growth control for S. cerevisiae lifespan shortening project (AID 705)
Conditions: OD615, 24 h, at 10 µM, hits give high values
measured-property: growth inhibition (%)
// units = %; emit number, no label

**Q:** Quick one: growth inhibition of `O=C(O)C1(P(=O)(c2ccccc2)c2ccccc2)CCC1` ?
**A:** -13.9

**Q:** What value of growth inhibition has been recorded for this entry: `O=C(CCS(=O)(=O)c1cccc2nonc12)NCCc1ccccc1`
**A:** -9.93

**Q:** Quick one: growth inhibition of `O=C(c1ccc(N2CCCCS2(=O)=O)cc1)N1CCN(c2ccc(N3CCOCC3)nn2)CC1` ?
**A:** 3.18

**Q:** Tell me the measured growth inhibition of `CCc1ccc2[nH]cc(C(=O)OCCOC)c(=O)c2c1` , please.
**A:** -19.9

**Q:** Look up growth inhibition for this compound: `COc1ccc(OC)c2[nH]c(=O)c(CCNC(C)=O)cc12`
**A:** -6.6

**Q:** Fill blank: measured growth inhibition of the compound `Cn1c(=O)[nH]c(=O)c2c1nc(SCCN1CCOCC1)n2CCCc1ccccc1` is ____.
**A:** -6.32

**Q:** So what's the measured growth inhibition for this one? `Cc1cccc(CC(=O)Nc2cc(=O)n(C)c(=O)n2C)c1`
**A:** -3.74

**Q:** I am curious: what growth inhibition value has been reported for `CCOc1ccccc1Nc1cc(C)nc2nc(C)nn12` ?
**A:** -11.9

**Q:** Tell me the measured growth inhibition of `Cc1[nH]nc2c1/C(=N\O)CC(C)(C)C2` , please.
**A:** 12.7

**Q:** Consider the compound `CCCn1c(NCc2ccc(N(C)C)cc2)nc2ccccc21` and give its measured growth inhibition.
**A:** -11.6

**Q:** Any idea what growth inhibition was measured for `Cn1nc(-c2ccc(Cl)cc2)c2cc(C(=O)N3CCN(c4ccccn4)CC3)sc21` ?
**A:** -0.13

**Q:** Could you share which growth inhibition value was measured for `CCCN(CCC(=O)Nc1ccccc1F)CC1CC1` ?
**A:** -12.8

**Q:** Item under review: `COc1ccc(Nc2cc(C)nc3nc(C)nn23)c(OC)c1` . Reported growth inhibition?
**A:** -2.91

**Q:** Any idea what growth inhibition was measured for CCC(C)Sc1nnc(Cc2cc(=O)[nH]c(=O)[nH]2)n1-c1ccc(F)cc1 (stereo unspecified) ?
**A:** -0.665

**Q:** Requested field: growth inhibition. Item: `CSc1ccc(S(=O)(=O)N2CCN(Cc3ccc4c(c3)OCO4)CC2)cc1`
**A:** -2.74

**Q:** # get_value(readout='growth inhibition', item= `CCn1c(-c2ccc(N)cc2)nc2ccccc21` )
**A:** -7.32

**Q:** Fill in: growth inhibition of `COc1ccc(/C(N)=C/C(=O)C(C)(C)C)cc1` is ___
**A:** -14.2

**Q:** Given the compound `COc1cccc(C(=O)Nc2ccc(S(=O)(=O)Nc3onc(C)c3C)cc2)c1` , what is its reported growth inhibition?
**A:** -9.3

**Q:** Record request: growth inhibition value, item `Cc1ccc(C(=O)c2cc3c(cc2N)OCCO3)cc1`
**A:** -11.6

**Q:** // query growth inhibition value for entry CCOC(=O)C(C)c1nn(C)c(=O)c2ccccc12 (stereo unspecified)
**A:** -3.15

**Q:** Reported growth inhibition, compound `CCOC(=O)c1c(NC(C)=O)no[n+]1[O-]` : ____
**A:** -14.2

**Q:** What growth inhibition value was documented for this compound, `Cc1cc(C)n2c(SCC(=O)Nc3ccccc3)nnc2n1` ?
**A:** -7.49

**Q:** Need growth inhibition, item `CCOC(=O)N1CCC(N2C(=O)c3ccccc3C2=O)CC1`
**A:** -1.78

**Q:** Item CC1=C(C(=O)OC2CCCCCCC2)C(c2cccc(O)c2)NC(=O)N1 (stereo unspecified) has what recorded growth inhibition?
**A:** -1.81

**Q:** // lookup growth inhibition for `Cc1ccc(C)c(C(=O)N(Cc2nc(-c3ccc(Cl)cc3)no2)C(C)C)c1`
**A:** -8.99

**Q:** Given the entry `Cc1cc(NC(=O)COn2nnc3ccc(Cl)cc32)no1` , report its measured growth inhibition.
**A:** -6.7

**Q:** Can you look up the measured growth inhibition of `Cc1ccccc1CNc1nc(N)n(-c2ccccc2)n1` for me?
**A:** -0.29

**Q:** Returns the measured growth inhibition for the input compound. Input: `CC(=O)NCCOc1c(C)cc(S(N)(=O)=O)cc1C`
**A:** 0.295

**Q:** Fill in: growth inhibition of `CCCS(=O)(=O)n1nc(-c2ccc(OC)cc2OC)cc1N` is ___
**A:** -6.52

**Q:** What value of growth inhibition has been reported for the following compound? `Cn1nc(-c2ccc(Cl)cc2)c2cc(C(=O)N3CCN(C(=O)c4ccco4)CC3)sc21`
**A:** 5.26

**Q:** Param item = `CCc1nc2oc(C(=O)c3ccccc3)c(N)c2c2c1COC(C)(C)C2` ; retrieve measured growth inhibition.
**A:** -10.5

**Q:** Reported growth inhibition for COc1cccc(C2NC(C)(C(=O)O)C3C(=O)N(C(C)C)C(=O)C23)c1O (stereo unspecified) : what is it?
**A:** 2.59

**Q:** Look up growth inhibition for this compound: `Cc1cc(Nc2cccc(Cl)c2C)n2ncnc2n1`
**A:** -2.94

**Q:** For the compound shown here, O=CN1CCN(C(C(=O)NC2CCCC2)c2ccc(Cl)cc2)CC1 (stereo unspecified) , give the reported growth inhibition.
**A:** -7.98

**Q:** Which value of growth inhibition has been reported for `CCOC(=O)Cn1c(=O)oc2cc(S(=O)(=O)Nc3cc(Cl)ccc3OC)ccc21` in the records?
**A:** -2.69

**Q:** If you can, please state the reported growth inhibition value of `Brc1ccc(-c2nc(-c3ccccn3)no2)o1` .
**A:** 0.205

**Q:** Quick one: growth inhibition for `CN(C)Cc1nc2c([nH]1)c(=O)n(C)c(=O)n2C` ?
**A:** -6.75

**Q:** Returns the measured growth inhibition for the input compound. Input: CN1C(=O)/C(=C2\SC(=S)N(C(CCC(=O)O)C(=O)O)C2=O)c2ccccc21 (stereo unspecified)
**A:** 2.35

**Q:** Can you share its growth inhibition? I mean this compound: `Cn1c(=O)c2c(nc(CN3CCOCC3)n2CCc2ccccc2)n(C)c1=O`
**A:** -8.53

**Q:** Which growth inhibition is reported for this compound? `O=C(N[C@@H](Cc1ccccc1)C(=O)O)c1cccnc1`
**A:** -5.99

**Q:** Using the record for `O=c1oc2ccccc2n1Cc1ccccc1Cl` , report its growth inhibition.
**A:** -1.38

**Q:** // lookup growth inhibition for CC(=O)N1CCN(CCN=CC2=C(O)CC(c3ccc(Cl)cc3)CC2=O)CC1 (stereo unspecified)
**A:** -8.45

**Q:** Entry `COc1ccc(OC)c(NC(=O)COC(=O)c2ccc(S(=O)(=O)N3CCOCC3)cc2)c1` : reported growth inhibition = ?
**A:** -3.99

**Q:** Sample `c1ccc(-c2ccc(-c3nc(-c4cccnc4)no3)cc2)cc1` — what was its growth inhibition?
**A:** 16.4

**Q:** Looking for the measured growth inhibition of `Cc1c(C(=O)Nc2ccncc2)sc2nc(-c3ccccc3)cn12` , can you help?
**A:** 0.39

**Q:** Give its growth inhibition value. Item: CCOc1cccc(C2c3c(oc4ccccc4c3=O)C(=O)N2c2ccccn2)c1 (stereo unspecified)
**A:** -1.86
